method.description: qHTS of pediatric cancer cell lines to identify multiple opportunities for drug repurposing: Primary screen for BT-12 cells (AID 1347101); further: nearly all actives have a fitted effect of over 25% in size
condition.summary: BT-12 viability, CellTiter-Glo luminescence, 48 h; series mostly up to 57.3 µM
Results filed as inconclusive are left out. Calls of active or inactive are those of the source. The call rests on the fitted dose curve; in most records, active means well fitted cell-killing curve with a large enough effect; inconclusive means small, poorly fitted or top-dose-only effect; inactive means flat fitted curve, though single readings scatter.
Write down one outcome, taken from active, inactive

Look over these answered cases.
compound	category.label
CC(O)C(=O)O (stereo unspecified)	inactive
CCCC(=O)Nc1ccc(OCC(O)CNC(C)C)c(C(C)=O)c1 (stereo unspecified)	inactive
O=c1[nH]c(=O)n([C@H]2CCCO2)cc1F	inactive
CCCCCCCCCCCCCCNCCO	inactive
C[C@H]1[C@H](NC(=O)/C(=N/OC(C)(C)C(=O)O)c2csc(N)n2)C(=O)N1S(=O)(=O)O (stereo in doubt)	inactive

## Task Tell me the assay call for `CCOc1ccc(Cc2nccc3cc(OCC)c(OCC)cc23)cc1OCC` please.
## Result active

---

System: CP250
method.description: qHTS profiling for inhibitors of Plasmodium falciparum proliferation (AID 504749); further: nearly all actives have a fitted effect of over 60% in size
condition.summary: P. falciparum in erythrocytes, SYBR Green DNA, 72 h; series mostly up to 28.7 µM
Inconclusive results are not listed. The source made the active and inactive calls. The call rests on the fitted dose curve; in most records, active means well fitted inhibition curve with a large enough effect; inconclusive means small, poorly fitted or top-dose-only effect; inactive means flat fitted curve, though single readings scatter.
Write down one outcome, taken from 1 for active, -1 for inactive

molecule	category.label
CCOC(=O)OC(C)OC1=C(C(=O)Nc2ccccn2)N(C)S(=O)(=O)c2ccccc21 (centres undefined)	-1
CCN(CCCc1ccccc1)CCCc1ccccc1	-1
CN=C(NC#N)NCCSCc1csc(N=C(N)N)n1	-1
CCCCCCCCCCCCCCCC[N+](C)(C)CC	1

Could you now look at the following molecule, please?
## Task Tell me the assay call for `C[C@H]1C[C@H]2[C@@H]3CCC4=CC(=O)C=C[C@]4(C)[C@@]3(Cl)[C@@H](O)C[C@]2(C)[C@@]1(O)C(=O)CO` please.
## Result -1

---

method.description: qHTS of pediatric cancer cell lines to identify multiple opportunities for drug repurposing: Primary screen for A673 cells (AID 1347092); further: nearly all actives have a fitted effect of over 45% in size
condition.summary: A673 Ewing sarcoma viability, CellTiter-Glo ATP luminescence, 48 h; series mostly up to 46 µM
Records with an inconclusive call do not appear. Activity calls are given as the source filed them. Calls come from the whole dose curve; as a rule, active = well fitted cell-killing curve with a large enough effect; inconclusive = small, poorly fitted or top-dose-only effect; inactive = no such curve, though single readings can be large or run the other way.
Write down one outcome, taken from active, inactive

molecule	category.label
Nc1ccc(C(=O)O)cc1	inactive
CCCOC(C(=O)OC1CCN(C)CC1)(c1ccccc1)c1ccccc1	inactive
COc1cccc2c1C(=O)c1c(O)c3c(c(O)c1C2=O)C[C@@](O)(C(=O)CO)C[C@@H]3O[C@H]1C[C@H](N)[C@H](O)[C@H](C)O1	active

## Task Tell me the assay call for `CC(C)(CO)[C@@H](O)C(=O)NCCCO` please.
## Result inactive

## Task Now give it for `Cc1c(C(C)C)c(=O)n(-c2ccccc2)n1C` too.
## Result inactive

## Task Now give it for CCCCCCCCCCOCC(O)CN (stereo not drawn) too.
## Result active

## Task Now give it for `C[C@]12C=CC(=O)C=C1[C@@H](F)C[C@@H]1[C@@H]2[C@@H](O)C[C@@]2(C)[C@H]1CC[C@]2(O)C(=O)CO` too.
## Result inactive

## Task Now give it for `O=c1ccc2ccccc2o1` too.
## Result inactive

## Task Now give it for `NCCc1ccn[nH]1` too.
## Result inactive

## Task Now give it for `CC(C)(Oc1ccc(Cl)cc1)C(=O)O` too.
## Result inactive

## Task Now give it for `CC(C)(C)CC(C)(C)c1ccc(OCCOCC[N+](C)(C)Cc2ccccc2)cc1` too.
## Result active

## Task Now give it for `CC(=O)OCC(=O)[C@@]12OC(C)(C)O[C@@H]1C[C@H]1[C@@H]3C[C@H](F)C4=CC(=O)C=C[C@]4(C)[C@@]3(F)[C@@H](O)C[C@@]12C` too.
## Result inactive

---

Tested on: CP192
method.description: qHTS profiling for inhibitors of Plasmodium falciparum proliferation (AID 504749); further: nearly all actives have a fitted effect of over 60% in size
condition.summary: P. falciparum in erythrocytes, SYBR Green DNA, 72 h; series mostly up to 28.7 µM
Records with an inconclusive call do not appear. The source made the active and inactive calls. Calls come from the whole dose curve; as a rule, active = well fitted inhibition curve with a large enough effect; inconclusive = small, poorly fitted or top-dose-only effect; inactive = flat fitted curve, though single readings scatter. Numbered stars: 1 amine (or outer) side, 2 acyl side, 3 side chain; on linkers, the order of the positions; unused ones are H or OH. Bridge positions count the residues as written; N and C are the ends. Square brackets hold non-standard residues; d marks the D form. Peptide text beside a SMILES is read from it. I, II: the chains in the order shown. Actinocin(9to1) = Cc1c2oc3c(C)ccc(C(=O)[*:1])c3nc-2c(C(=O)[*:2])c(N)c1=O; NMeV = CN[C@H](C(=O)O)C(C)C; Sar = CNCC(=O)O
Write down one outcome, taken from YES for active, NO for inactive

molecule	target.or.system	category.label
C#C[C@]1(O)CC[C@H]2[C@@H]3CCc4cc(OC5CCCC5)ccc4[C@H]3CC[C@@]21C	CP192	NO

## Task Tell me the assay call for `C=CCc1ccc(O)c(OC)c1` please.
## Result NO

## Task Now give it for `O=C1c2ccccc2C(=O)C1c1ccccc1` too.
## Result NO

## Task Now give it for CCN(CC)CCOC(=O)C(c1ccccc1)C1CCCCC1 (stereo unspecified) too.
## Result NO

## Task Now give it for CNCCC(Oc1ccccc1C)c1ccccc1 (stereo unspecified) too.
## Result NO

## Task Now give it for `O=C1OCCN1/N=C/c1ccc([N+](=O)[O-])o1` too.
## Result NO

## Task Now give it for `COC1=CC(=O)C[C@@H](C)[C@]12Oc1c(Cl)c(OC)cc(OC)c1C2=O` too.
## Result NO

## Task Now give it for Cc1c2oc3c(C)ccc(C(=O)N[C@@H]4C(=O)N[C@H](C(C)C)C(=O)N5CCC[C@H]5C(=O)N(C)CC(=O)N(C)[C@@H](C(C)C)C(=O)O[C@@H]4C)c3nc-2c(C(=O)N[C@@H]2C(=O)N[C@H](C(C)C)C(=O)N3CCC[C@H]3C(=O)N(C)CC(=O)N(C)[C@@H](C(C)C)C(=O)O[C@@H]2C)c(N)c1=O (I: T[dV]P[Sar][NMeV] / II: T[dV]P[Sar][NMeV]; ester I:1-I:C, II:1-II:C; linker I:N-II:N via Actinocin(9to1)) too.
## Result YES

## Task Now give it for `CCCCCCCCCCCCCCCCOP(=O)([O-])OCC[N+](C)(C)C` too.
## Result NO

---

method.description: qHTS of pediatric cancer cell lines to identify multiple opportunities for drug repurposing: Primary screen for NB-EBc1 cells (AID 1347095)
condition.summary: NB-EBc1 neuroblastoma viability, CellTiter-Glo luminescence, 48 h; series mostly up to 46 µM
Inconclusive results are not listed. Calls of active or inactive are those of the source. Calls come from the whole dose curve; as a rule, active = well fitted cell-killing curve with a large enough effect; inconclusive = small, poorly fitted or top-dose-only effect; inactive = no such curve, though single readings can be large or run the other way.
Write down one outcome, taken from t for active, f for inactive

compound	category.label
CC1=C(C(=O)O)N2C(=O)[C@@H](NC(=O)[C@H](N)c3ccc(O)cc3)[C@H]2SC1	f
O=C1OC2(c3ccc(O)cc3Oc3cc(O)ccc32)c2ccccc21	f
NC(=O)c1cc[n+](CC2=C(C(=O)[O-])N3C(=O)[C@@H](NC(=O)Cc4cccs4)[C@H]3SC2)cc1	f
C[C@@H]1C[C@H]2[C@@H]3C[C@H](F)C4=CC(=O)C(Cl)=C[C@]4(C)[C@@]3(F)[C@@H](O)C[C@]2(C)[C@@]1(O)C(=O)CO	f
Nc1ccn([C@@H]2O[C@H](CO)[C@@H](O)C2(F)F)c(=O)n1	t

## Task Tell me the assay call for `O=C1[C@H]2CCCC[C@H]2C(=O)N1CCCCN1CCN(c2nsc3ccccc23)CC1` please.
## Result f

## Task Now give it for `CCCCc1nc(Cl)c(CO)n1Cc1ccc(-c2ccccc2-c2nn[nH]n2)cc1` too.
## Result f

---

System: C2A
method.description: qHTS profiling for inhibitors of Plasmodium falciparum proliferation (AID 504749); further: nearly all actives have a fitted effect of over 60% in size
condition.summary: P. falciparum in erythrocytes, SYBR Green DNA, 72 h; series mostly up to 28.7 µM
Protocol: NIH National Institute of Allergy and Infectious Diseases [NIAID] NIH Chemical Genomics Center [NCGC] […] Because mature erythrocytes lack DNA, only Plasmodium-derived DNA is detected. NCGC Assay Protocol Summary: The SYBR Green viability assay was adapted from a method described previously (Plouffe et al., 2008). […] The following morning, fluorescence intensity at 485(14) nm excitation and 535(25) nm emission wavelengths was measured on an EnVision (Perkin Elmer) plate reader. […]
Records with an inconclusive call do not appear. The source made the active and inactive calls. The call rests on the fitted dose curve; in most records, active means well fitted inhibition curve with a large enough effect; inconclusive means small, poorly fitted or top-dose-only effect; inactive means flat fitted curve, though single readings scatter.
Write down one outcome, taken from YES for active, NO for inactive

compound	category.label
Cc1ncc(CSSCc2cnc(C)c(O)c2CO)c(CO)c1O	NO
CCN1CCC[C@H]1CNC(=O)c1c(OC)ccc(Br)c1OC	NO
CCOc1ccc2nc3cc(N)ccc3c(N)c2c1	YES
C[C@@H]1CN(CCCn2c3ccccc3c3ccccc32)C[C@H](C)N1	YES
O=C1c2ccccc2C(=O)C1c1ccccc1	NO
CC(C)=CCC1C(=O)N(c2ccccc2)N(c2ccccc2)C1=O	NO
COc1c(C)c2c(c(O)c1C/C=C(\C)CCC(=O)O)C(=O)OC2	YES
CCCCCC=CCC=CCCCCCCCC(=O)OCC	NO
C1CCc2nnnn2CC1	NO
CCCCCCC[N+](CC)(CC)CCCCc1ccc(Cl)cc1	YES

## Task Tell me the assay call for `O=C(Nc1ccc(Oc2ccc(Cl)cc2)c(Cl)c1)c1cc(I)cc(I)c1O` please.
## Result NO

## Task Now give it for `Cc1c(C(N)=O)cc([N+](=O)[O-])cc1[N+](=O)[O-]` too.
## Result NO

## Task Now give it for `O=c1ccc2ccccc2o1` too.
## Result NO

## Task Now give it for `CC(=O)OCC(=O)[C@@]1(OC(C)=O)[C@@H](C)C[C@H]2[C@@H]3C[C@H](F)C4=CC(=O)C=C[C@]4(C)[C@@]3(F)[C@@H](O)C[C@@]21C` too.
## Result NO

Reference source for all entries: PubChem BioAssay (NCATS)
